# tested.target: KRAS WT (Homo sapiens (Human), UniProt P01116+P62937)
# Sequence (P01116-2 other isoform, or with tags, fused parts or gaps): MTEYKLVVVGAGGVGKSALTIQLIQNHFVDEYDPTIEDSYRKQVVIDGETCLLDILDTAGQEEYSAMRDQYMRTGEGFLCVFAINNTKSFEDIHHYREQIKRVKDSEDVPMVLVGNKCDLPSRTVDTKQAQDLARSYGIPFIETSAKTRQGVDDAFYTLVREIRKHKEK
# Sequence (P62937 whole entry): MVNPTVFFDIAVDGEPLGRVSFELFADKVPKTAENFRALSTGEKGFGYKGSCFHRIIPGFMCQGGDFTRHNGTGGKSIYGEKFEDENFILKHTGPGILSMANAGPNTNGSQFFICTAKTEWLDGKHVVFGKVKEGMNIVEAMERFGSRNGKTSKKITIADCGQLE
# experiment.description: Ras-Raf (BRAF RBD) disruption / FRET / MOA assay, KRAS WT
# Format: biochemical
# condition.context: read-out: IC50* KRAS WT FRET data
metric.name: IC50

compound	tested.target	IC50
C=CC(=O)N(C)[C@@H]1CCN(C(=O)N(C)[C@H](C(=O)N[C@H]2Cc3nc(cs3)-c3ccc4c(c3)c(c(-c3cccnc3[C@H](C)OC)n4CC)CC(C)(C)COC(=O)[C@@H]3CCCN(N3)C2=O)C(C)C)C1 (atropisomer, axis not shown)	KRAS WT (Homo sapiens (Human), UniProt P01116+P62937)	100 to 1000 nM
C=CC(=O)N1C[C@@H]2C[C@H]1CN2C(=O)N(C)[C@H](C(=O)N[C@H]1Cc2nc(cs2)-c2ccc3c(c2)c(c(-c2cccnc2[C@H](C)OC)n3CC)CC(C)(C)COC(=O)[C@@H]2CCCN(N2)C1=O)C(C)C (atropisomer, axis not shown)	KRAS WT (Homo sapiens (Human), UniProt P01116+P62937)	100 to 1000 nM
C=CC(=O)N1CC[C@H](C(=O)N(C)[C@H](C(=O)N[C@H]2CC3=NC=C(O3)c3ccc4c(c3)c(c(-c3cccnc3[C@H](C)OC)n4CC)CC(C)(C)COC(=O)[C@@H]3CCCN(N3)C2=O)C(C)C)C1 (atropisomer, axis not shown)	KRAS WT (Homo sapiens (Human), UniProt P01116+P62937)	1000 to 10000 nM

Now for a further compound.
[ask] What IC50 appears in the records for this compound with KRAS WT (Homo sapiens (Human), UniProt P01116+P62937)? C=CC(=O)N1CC[C@H](C(=O)N(C)[C@H](C(=O)N[C@H]2Cc3csc(n3)-c3ccc4c(c3)c(c(-c3cccnc3[C@H](C)OC)n4CC(F)(F)F)CC(C)(C)COC(=O)[C@@H]3CCCN(N3)C2=O)C(C)C)C1 (atropisomer, axis not shown)
[reply] 100 to 1000 nM

###

# tested.target: KRAS Q61H (Homo sapiens (Human), UniProt P01116+P62937, Q61H)
# Sequence (P01116-2 other isoform, or with tags, fused parts or gaps Q61H): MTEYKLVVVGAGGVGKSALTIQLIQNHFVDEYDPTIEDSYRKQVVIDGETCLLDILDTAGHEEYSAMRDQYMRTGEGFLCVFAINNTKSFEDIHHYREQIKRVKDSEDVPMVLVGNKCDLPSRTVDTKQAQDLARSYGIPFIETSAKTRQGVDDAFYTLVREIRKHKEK
# Sequence (P62937 whole entry): as the sequence (P62937 whole entry) above
# experiment.description: Ras-Raf (BRAF RBD) disruption / FRET / MOA assay, KRAS Q61H
# Type: biochemical
# condition.context: Ras-Raf disruption/FRET/MOA assay; class symbols; read-out: KRAS Q61H FRET data IC50
metric.name: IC50

// known answers, use as guide
compound	result
C=CC(=O)Nc1cnc(OC[C@H](C(=O)N[C@H]2Cc3cccc(c3)-c3ccc4c(c3)c(c(-c3cccnc3[C@H](C)OC)n4CC)CC(C)(C)COC(=O)[C@@H]3CCCN(N3)C2=O)C(C)C)n1C (atropisomer, axis not shown)	100 to 1000 nM
CO[C@@H](C)c1ncccc1-c1c2c3cc(ccc3n1CC(F)(F)F)-c1csc(n1)C[C@H](NC(=O)[C@H](C(C)C)N(C)C(=O)N1C[C@@H]3OCCN(C(=O)/C=C/CN(C)C)[C@@H]3C1)C(=O)N1CCC[C@H](N1)C(=O)OCC(C)(C)C2 (atropisomer, axis not shown)	100 to 1000 nM
C=CC(=O)N1CC2(C1)OCCN2C(=O)N(C)[C@H](C(=O)N[C@H]1Cc2nc(cs2)-c2ccc3c(c2)c(c(-c2cccnc2[C@H](C)OC)n3CC)CC(C)(C)COC(=O)[C@@H]2CCCN(N2)C1=O)C(C)C (atropisomer, axis not shown)	10 to 100 nM
CCn1c(-c2cccnc2[C@H](C)OC)c2c3cc(ccc31)-c1cccc(c1)C[C@H](NC(=O)[C@@H](COC1CN(C(=O)C#CC(C)(C)N(C)C3CC3)C1)C(C)C)C(=O)N1CCC[C@H](N1)C(=O)OCC(C)(C)C2 (atropisomer, axis not shown)	> 10000 nM
CCn1c(-c2cccnc2[C@H](C)OC)c2c3cc(ccc31)-c1csc(n1)C[C@H](NC(=O)CCO[C@H]1CCN(C(=O)C#CC(C)(C)N3CCC3)C1)C(=O)N1CCC[C@H](N1)C(=O)OCC(C)(C)C2 (atropisomer, axis not shown)	1000 to 10000 nM

[ask] Fill in the blank: the reported IC50 of C=CC(=O)N1C[C@H](C)N(C(=O)N(C)[C@H](C(=O)N[C@H]2Cc3nc(cs3)-c3ccc4c(c3)c(c(-c3cccnc3[C@H](C)OC)n4CC)CC(C)(C)COC(=O)[C@@H]3CCCN(N3)C2=O)C(C)C)C[C@@H]1C (atropisomer, axis not shown) is ____.
[reply] 10 to 100 nM

[ask] Fill in the blank: the reported IC50 of CCn1c(-c2cccnc2[C@H](C)OC)c2c3cc(ccc31)-c1csc(n1)C[C@H](NC(=O)[C@H](C(C)C)N(C)C(=O)N1C[C@@H]3CN(C(=O)C#CC(C)(C)N(C)C)CC[C@@H]31)C(=O)N1CCC[C@H](N1)C(=O)OCC(C)(C)C2 (atropisomer, axis not shown) is ____.
[reply] 100 to 1000 nM
